# TARGET ENTITY: T1, human TF ECD-His (hTF-his) (human, UniProt P13726 33-251)
# T1 construct: also called bio-hTF-his; human TF-His protein
# ASSAY TEXT: SPR Biacore T200, antibody on Protein A chip, TF-His as analyte, 1:1 model
Reported kon values for a set of binders
Entry rule: numbers only, all in M⁻¹ s⁻¹.

BINDER | UNIT DESCRIPTOR | kon
hu67-14 (antibody, human IgG1, kappa, V domains shown) VH: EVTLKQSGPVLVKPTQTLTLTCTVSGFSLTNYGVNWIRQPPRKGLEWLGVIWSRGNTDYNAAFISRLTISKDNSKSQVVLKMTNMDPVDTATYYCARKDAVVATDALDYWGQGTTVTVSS VL: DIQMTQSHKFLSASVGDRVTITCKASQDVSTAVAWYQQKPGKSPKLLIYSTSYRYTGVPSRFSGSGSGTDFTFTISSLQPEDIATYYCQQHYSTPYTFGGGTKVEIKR | M⁻¹ s⁻¹ | 31000

# evaluate next
input: // lookup kon for chimeric antibody CH310 (antibody, human IgG1, kappa, V domains shown, Murine 310# variable regions + human constant regions) VH: EVQLQQSGPELVKPGASLKISCKASGYSFTGYYMNWVKQSPEKSLEWIGEINPSTGGSTYNQKFKAKATLTVDQSSNTAYMQLKSLTSEDSAVYYCARRELGGPFGYWGQGTPVTVSA VL: SIVMTQTPKFLLVSSGDRVTITCKASQSVSNGIAWYQQKPGQSPKLLIYFASNRYTGVPDRFTGSGYGTDFTFTISTVQAEDLAVYFCQQDYSSPWTFGGGTKLEIKR
output: 409000
